testedSystem: HDAC6 (Homo sapiens)
Construct: our assay that uses approximately 0.6 nM concentration of the full-length enzyme; made in house; host or cells: HEK293/T17 cells, transient transfection
Sequence (Q9UBN7 whole entry): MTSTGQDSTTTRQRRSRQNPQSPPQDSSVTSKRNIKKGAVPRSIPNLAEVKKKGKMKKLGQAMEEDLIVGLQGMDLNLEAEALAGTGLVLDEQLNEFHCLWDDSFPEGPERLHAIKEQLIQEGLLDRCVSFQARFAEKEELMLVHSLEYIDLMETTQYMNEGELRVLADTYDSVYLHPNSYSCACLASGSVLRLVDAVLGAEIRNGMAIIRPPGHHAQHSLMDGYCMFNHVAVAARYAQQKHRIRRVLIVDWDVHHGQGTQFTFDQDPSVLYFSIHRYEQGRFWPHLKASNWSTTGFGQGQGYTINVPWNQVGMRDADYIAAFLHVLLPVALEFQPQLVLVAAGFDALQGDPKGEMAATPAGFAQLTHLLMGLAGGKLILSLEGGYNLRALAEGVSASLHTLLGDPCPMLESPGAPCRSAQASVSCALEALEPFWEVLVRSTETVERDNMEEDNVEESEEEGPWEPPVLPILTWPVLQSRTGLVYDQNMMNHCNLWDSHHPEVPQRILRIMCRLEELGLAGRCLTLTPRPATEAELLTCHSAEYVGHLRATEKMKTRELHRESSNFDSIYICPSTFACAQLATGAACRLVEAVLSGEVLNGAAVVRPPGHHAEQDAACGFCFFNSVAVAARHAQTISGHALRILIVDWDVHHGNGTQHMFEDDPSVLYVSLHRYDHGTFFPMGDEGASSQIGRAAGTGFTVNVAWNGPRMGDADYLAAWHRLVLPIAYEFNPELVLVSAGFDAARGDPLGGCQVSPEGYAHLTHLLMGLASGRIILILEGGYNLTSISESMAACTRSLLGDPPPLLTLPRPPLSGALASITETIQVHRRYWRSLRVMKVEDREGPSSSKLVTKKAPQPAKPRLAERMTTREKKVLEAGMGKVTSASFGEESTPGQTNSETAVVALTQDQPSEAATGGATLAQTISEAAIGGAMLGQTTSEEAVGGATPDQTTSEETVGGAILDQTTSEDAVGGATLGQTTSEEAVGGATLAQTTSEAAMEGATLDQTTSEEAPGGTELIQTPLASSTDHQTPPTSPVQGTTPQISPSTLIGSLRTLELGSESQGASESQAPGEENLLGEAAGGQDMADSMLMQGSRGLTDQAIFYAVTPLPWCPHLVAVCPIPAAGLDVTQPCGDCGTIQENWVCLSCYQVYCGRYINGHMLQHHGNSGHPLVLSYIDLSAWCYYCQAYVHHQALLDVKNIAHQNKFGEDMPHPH
protocolNotes: Fluorescence-based HDAC inhibition assay, HDAC6
Assay type: biochemical
appliedConditions: 10 μM Ac-GAK(Ac)-AMC substrate; mean of two experiments ± SEM
Listing of recorded IC50 by entry.
Please state the figure in nM; there is no need to write the unit.

Example entries begin here.
{"compound": "O=C(NO)c1ccc(CN(CCCCO)C(=O)Nc2ccccc2)cc1 [Compound 6c, reference compound]", "readingUnit": "nM", "val": 0.5}
{"compound": "CCCCN(Cc1ccc(C(=O)NO)cc1)C(=O)Nc1ccc(CN)cc1 [Compound 6b]", "readingUnit": "nM", "val": 0.9}

Let us examine a further case.
Ask: Recorded IC50 of NCc1ccc(NC(=O)N(CCCCO)Cc2ccc(C(=O)NO)cc2)cc1 [Compound 6a] , please.
Result: 0.4

###

The next entries give measured IC50 for HDAC4 (Homo sapiens).
Please state the figure in µM; there is no need to write the unit.

Example entries begin here.
{"compound": "NCc1ccc(NC(=O)N(CCCCO)Cc2ccc(C(=O)NO)cc2)cc1", "testedSystem": "HDAC4 (Homo sapiens)", "val": 8.25}
{"compound": "O=C(NO)c1ccc(CN(CCCCO)C(=O)Nc2ccccc2)cc1 [Compound 6c, reference compound]", "testedSystem": "HDAC4 (Homo sapiens)", "val": 14}

Let us examine a further case.
Ask: Recorded IC50 of `CCCCN(Cc1ccc(C(=O)NO)cc1)C(=O)Nc1ccc(CN)cc1` , please.
Result: 23.1

###

The next entries give measured pIC50 for HDAC9 (Homo sapiens).
Answer as the number alone; pIC50 is minus log10 of concentration in mol/L.

Example entries begin here.
{"molecule": "CCCCN(Cc1ccc(C(=O)NO)cc1)C(=O)Nc1ccc(CN)cc1 [Compound 6b]", "pIC50": 4.76}
{"molecule": "O=C(NO)c1ccc(CN(CCCCO)C(=O)Nc2ccccc2)cc1 [Compound 6c, reference compound]", "pIC50": 4.53}

Let us examine a further case.
Ask: Recorded pIC50 of NCc1ccc(NC(=O)N(CCCCO)Cc2ccc(C(=O)NO)cc2)cc1 [Compound 6a] , please.
Result: 5.20

###

protocolNotes: in vitro
appliedConditions: rat, liver microsomes
experimentalReadout: half-life (h)
Please state the figure in h; there is no need to write the unit.

Ask: Recorded half-life of `NCc1ccc(NC(=O)N(CCCCO)Cc2ccc(C(=O)NO)cc2)cc1` , please.
Result: 2.88

###

The next entries give measured IC50 for HDAC5 (Homo sapiens, UniProt Q9UQL6).
Please state the figure in µM; there is no need to write the unit.

{"compound": "NCc1ccc(NC(=O)N(CCCCO)Cc2ccc(C(=O)NO)cc2)cc1 [Compound 6a]", "experimentalReadout": "IC50", "val": 3.42}
{"compound": "O=C(NO)c1ccc(CN(CCCCO)C(=O)Nc2ccccc2)cc1 [Compound 6c, reference compound]", "experimentalReadout": "IC50", "val": 9.13}

Let us examine a further case.
Ask: Recorded IC50 of CCCCN(Cc1ccc(C(=O)NO)cc1)C(=O)Nc1ccc(CN)cc1 [Compound 6b] , please.
Result: 10.1

###

testedSystem: HDAC1 (Homo sapiens)
Construct: made in house; host or cells: HEK293/T17 cells, transient transfection
protocolNotes: Fluorescence-based HDAC inhibition assay, HDAC1
Type: biochemical
appliedConditions: Table 2
experimentalReadout: pIC50
Answer as the number alone; pIC50 is minus log10 of concentration in mol/L.

Ask: Recorded pIC50 of `NCc1ccc(NC(=O)N(CCCCO)Cc2ccc(C(=O)NO)cc2)cc1` , please.
Result: 6.93

###

testedSystem: HDAC1 (Homo sapiens, UniProt Q13547)
Construct: made in house; host or cells: HEK293/T17 cells, transient transfection
Sequence (Q13547 whole entry): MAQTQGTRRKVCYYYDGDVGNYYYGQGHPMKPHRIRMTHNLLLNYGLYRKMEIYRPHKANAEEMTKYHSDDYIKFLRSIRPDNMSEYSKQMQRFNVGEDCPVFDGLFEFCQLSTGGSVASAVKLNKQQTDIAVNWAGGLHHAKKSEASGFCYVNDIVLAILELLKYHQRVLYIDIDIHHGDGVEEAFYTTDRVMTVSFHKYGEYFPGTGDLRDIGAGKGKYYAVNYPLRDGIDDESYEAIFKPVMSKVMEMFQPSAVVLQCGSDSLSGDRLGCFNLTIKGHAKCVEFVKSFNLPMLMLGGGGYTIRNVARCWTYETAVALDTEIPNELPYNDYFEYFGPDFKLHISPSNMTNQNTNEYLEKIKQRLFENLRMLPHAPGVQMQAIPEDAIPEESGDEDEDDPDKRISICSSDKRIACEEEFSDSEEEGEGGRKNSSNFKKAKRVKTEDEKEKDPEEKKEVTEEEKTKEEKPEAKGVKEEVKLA
protocolNotes: Fluorescence-based HDAC inhibition assay, HDAC1
Assay type: biochemical
appliedConditions: 10 μM Ac-GAK(Ac)-AMC substrate; mean of two experiments ± SEM
experimentalReadout: pIC50
Answer as the number alone; pIC50 is minus log10 of concentration in mol/L.

Example entries begin here.
{"compound": "O=C(NO)c1ccc(CN(CCCCO)C(=O)Nc2ccccc2)cc1 [Compound 6c, reference compound]", "testedSystem": "HDAC1 (Homo sapiens, UniProt Q13547)", "val": 6.83}
{"compound": "NCc1ccc(NC(=O)N(CCCCO)Cc2ccc(C(=O)NO)cc2)cc1 [Compound 6a]", "testedSystem": "HDAC1 (Homo sapiens, UniProt Q13547)", "val": 6.93}

Ask: Recorded pIC50 of CCCCN(Cc1ccc(C(=O)NO)cc1)C(=O)Nc1ccc(CN)cc1 [Compound 6b] , please.
Result: 7.10
